measurementTarget: menin/MLL binding (biotinylated wild-type or mutated menin and MLL-AF9 fusion protein) (Homo sapiens)
Construct: biotinylated (1) wild-type menin or (2) mutated menin (described in Nature (2012) Vol. 482, pp. 542-548); fused on or other part: Biotin attached chemically (Sulfo-NHS-Biotin); no fused second protein is printed for menin
Sequence (O00255 1-459 limits assumed, change not shown): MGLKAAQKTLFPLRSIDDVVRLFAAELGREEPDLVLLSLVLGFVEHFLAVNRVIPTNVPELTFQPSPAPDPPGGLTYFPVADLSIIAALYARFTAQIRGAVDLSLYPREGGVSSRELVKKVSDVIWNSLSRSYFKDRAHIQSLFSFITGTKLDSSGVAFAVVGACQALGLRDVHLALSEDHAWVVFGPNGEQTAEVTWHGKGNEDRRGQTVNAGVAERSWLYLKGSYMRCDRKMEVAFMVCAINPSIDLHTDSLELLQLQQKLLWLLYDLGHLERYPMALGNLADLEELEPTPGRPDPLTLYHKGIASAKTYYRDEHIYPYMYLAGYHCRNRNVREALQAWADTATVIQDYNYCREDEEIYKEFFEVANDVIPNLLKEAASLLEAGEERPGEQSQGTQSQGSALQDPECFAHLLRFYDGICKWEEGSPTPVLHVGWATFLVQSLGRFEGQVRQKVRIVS
assay: Assay 1 (Binding Assay): AlphaLISA menin/MLL binding
experimentalSetup: 5 nM biotinylated menin, MLL-AF9-FLAG lysate
measurementType: IC50

Look over these answered cases.
| molecule | measurementType | recordedValue |
| --- | --- | --- |
| CC(C)N(C)C(=O)c1cc(F)ccc1-n1cc([C@H]2CC[C@H](N3CCC(O)CC3)CC2)c2ccncc21 | IC50 | 100 to 1000 nM |
| CC(C)N(C)C(=O)c1cc(F)ccc1-n1cc(C2CCN(Cc3ccc(NS(C)(=O)=O)cc3)CC2)c2ccncc21 | IC50 | < 100 nM |
| CC(C)N(C)C(=O)c1cc(F)ccc1-n1cc([C@H]2CC[C@H](NC(=O)C3CCCCC3)CC2)c2ccncc21 | IC50 | ≥ 1000 nM |
| CC(C)N(C)C(=O)c1cc(F)ccc1-n1cc(C2CCCN(Cc3ccccc3)C2)c2ccncc21 (stereo not drawn) | IC50 | < 100 nM |
| CC(C)N(C)C(=O)c1cc(F)ccc1-n1cc(C2CCC(O)CC2)c2ccncc21 (single isomer, unassigned) [Example 53A] | IC50 | ≥ 1000 nM |

Lab note: next molecule to report on.
Fill blank: measured IC50 of the molecule CC(C)N(C)C(=O)c1cc(F)ccc1-n1cc(C2CCC3(CC2)OCCO3)c2ccncc21 [Int. 17A] is ____.
≥ 1000 nM
